biological target: human TRPV4 (Homo sapiens); construct: host or cells: tetracycline-inducible Flp-In T-REx 293 cells; experiment: Hypotonicity-induced Ca2+ influx (Fluo-4, FDSS); assay type: cell-based; details: Flp-In T-REx 293 cells stably expressing human TRPV4, compounds listed by potency bin (<10 nM Tables 96-1/96-2, <3 nM Table 97)
Sequence (Q9HBA0 whole entry): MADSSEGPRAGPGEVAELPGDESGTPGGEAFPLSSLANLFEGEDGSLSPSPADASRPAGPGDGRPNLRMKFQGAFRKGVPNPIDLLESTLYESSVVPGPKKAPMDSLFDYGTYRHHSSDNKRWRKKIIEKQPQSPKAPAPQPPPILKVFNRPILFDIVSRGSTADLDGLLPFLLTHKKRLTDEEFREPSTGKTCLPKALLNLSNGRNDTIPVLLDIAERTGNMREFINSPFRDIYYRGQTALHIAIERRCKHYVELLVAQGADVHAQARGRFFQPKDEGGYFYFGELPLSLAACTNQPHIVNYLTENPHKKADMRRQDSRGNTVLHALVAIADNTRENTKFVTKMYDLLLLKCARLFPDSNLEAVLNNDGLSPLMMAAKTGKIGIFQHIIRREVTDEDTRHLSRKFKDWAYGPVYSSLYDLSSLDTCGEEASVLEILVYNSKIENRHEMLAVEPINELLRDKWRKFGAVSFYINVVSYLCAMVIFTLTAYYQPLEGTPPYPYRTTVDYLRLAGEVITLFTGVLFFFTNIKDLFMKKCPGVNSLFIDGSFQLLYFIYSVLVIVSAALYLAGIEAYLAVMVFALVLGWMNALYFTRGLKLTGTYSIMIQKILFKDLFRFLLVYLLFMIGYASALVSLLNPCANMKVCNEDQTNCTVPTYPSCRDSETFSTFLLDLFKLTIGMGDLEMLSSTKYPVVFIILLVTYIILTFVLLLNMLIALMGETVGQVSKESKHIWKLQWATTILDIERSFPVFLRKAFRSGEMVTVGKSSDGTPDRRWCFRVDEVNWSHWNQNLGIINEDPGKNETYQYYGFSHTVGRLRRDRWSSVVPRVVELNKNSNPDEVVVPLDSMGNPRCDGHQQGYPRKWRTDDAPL
pIC50: −log10 of the molar value.
measured_endpoint: pIC50

Guide cases for pIC50, answers given:
molecule=O=C([C@H](O)c1cccc(C(F)(F)F)c1)N1CCCc2nc(C3(c4cccc(-c5cnsc5)c4)CC3)[nH]c(=O)c2C1 result="> 8.52"
molecule=O=C(Cc1cccc(-c2cccc(OC(F)(F)F)c2)c1)N1CCc2nc(C3(c4cccc(Cl)c4)CC3)[nH]c(=O)c2C1 result="> 8.00"

What the record says about `O=C([C@H](O)c1cccc(C(F)(F)F)c1)N1CCCc2nc(C3(c4cccc(-c5cccc(F)c5)c4)CC3)[nH]c(=O)c2C1` : pIC50 is > 8.00
